- PROTOCOL NOTES: soluble on expression in E. coli; label from the status in PepcDB or PDB records
QUANTITY KIND: soluble on expression in E. coli

Qu. Recorded soluble on expression in E. coli of MEVITFESEAYKALVGKIEKIAGYVAEAQLPSEEKKETWLDSNQLAEALGISTRTLQRLRDENLISYSMLRGRCMYKLSEVERCLEERTIRCKPQTLEDFRKNYLTRTGNDKKG , please.
Ans. not soluble

Qu. Same lookup for MSLSDFDYIQKNTPPEFPEKFKTALLPENIKKNRYSDVLANDDTRVKLNNNGYINANYIFQGRMIASQAPTIETIPDFLQMIIEQQVPIVIMLTKCKEKTRIKATPYWGYKSEGGKKVFGNYTVNTIDTLYDDVEEDKFMEDIQIRYLQIIYEDGVYSFIQIHYMGWPDFGVPLNPKDALDIVYIQYIIGTTSKFSNRNLVCVHCSAGVGRTGVYCLLSRIVEMVTYEILEKSETYSKQRSTSSSSKVREVEDRIEEILLSHPVISYEDCEVILPELVLSIRNERSKMVQTKEQYDFICETVNCFYEDALDSINQYYEVIDALTEGHHHHHH , please.
Ans. not soluble

* * *

- PROTOCOL NOTES: soluble on expression in E. coli; label from the status in PepcDB or PDB records
QUANTITY KIND: soluble on expression in E. coli

Qu. I would be grateful if you could share the reported soluble on expression in E. coli for MEIARKVMEEFLEIWNEALAKRSLPGKFVNKDLNFGEFGLGDNYTPQHTAVRNYALVMAHMIATVQAVSG .
Ans. not soluble

Qu. Same again, this time with MAHHHHHHMNFLRRNAANLCKGKVLGKHLNCSVHELTNLNKRKISNITDLGKCGQRYQATHSGSTIGAKRFASSEAQKLSEVVKAEVQHEKSNYEAPDNIKKFLQTSGWKFEEQEGDVNMVLTKNVDGMKIIIDFQLVSPFQAEGENEAQAEMTDFSVTVEKPNKQGGITFYCTTLQNDEKFRYMIGNVKYYKNEEGKNSVSAYNGPEFEDLDDSLQTSLDEWLANLGVDSELCDFIDSCSIDKEQREYMSWLQNISNFIES
Ans. not soluble

* * *

- PROTOCOL NOTES: soluble on expression in E. coli; label from the status in PepcDB or PDB records
QUANTITY KIND: soluble on expression in E. coli

Qu. What measured soluble on expression in E. coli goes with MGSDKIHHHHHHMEEGSAGMGMSQNNSTLVAPQPKGIIDPATGKPVGSNDAYFTEINDELADKGFLVTSTDELITWARTGSLMWMQFGLACCAVEGLMQASGPRYDMERFGVAPRASPRQSDVMIVAGTLTNKMAPALRKVYDQMPEPRYVISMGSCANGGGYYHYSYAVVRGCDRVVPVDIYVPGCPPTAEALLYGVLLLQKKIRRTGTIER ?
Ans. not soluble

Qu. Here is the next sequence: MKFTWIALPGVLLLSACSSSQPNAPRPPRIGMPNPAAVYCEQQGGTLMPVQTPQGVRSDCKLPNGEIIDEWTLWRREHPDTKK
Ans. not soluble

* * *

- PROTOCOL NOTES: soluble on expression in E. coli; label from the status in PepcDB or PDB records
QUANTITY KIND: soluble on expression in E. coli

Qu. Consider the sequence shown here: MTAQDYLNGKLAAANGPLADDWKNLKELWEKKLWHQLTVLTRSLVKKPQFVASTDMHEFYRLFVAEWELRVNPLQLVEICISIAQNIATKDKQKSMEFLSKIGNVINKDKIAVARLHTGEIEARLENKDKNGQIIDLKSIRTQIDSTQHEVDSLVGVTEVHAPFYRVSSLYLREVGDFAGYYREALRYLGVEDANNLTTEQKQVHAVLLGFAALLGENVHNFGELLAHPILKSLEGTRERWIVDVLLAFNSGDLTRFFSLEGDWGGWDDLKKQKDFLTAKIRLMAVMELAVSRPTKARSVSFKEIATKCQIPFDEVEFLVMKALSKDLIRGDINQVEQVVYVTWVQPRVLDNPQIMQMATRISAWRNDVNSMEGIVSKEAREILTQN What is its recorded soluble on expression in E. coli?
Ans. not soluble

Qu. Further, for GPGSMPNPYTGNYEAARFVEYYASAQMLRDSVHRLHTVSIQRHMDALRRAESAHQKHTCPAAPIRSRQQIEEHANRMVYQEMLRRQKNMTKLAWDVYKPVPPKRLSSEELRSLVKRMYEQQMQNMTERKKEARQRQVVLSDEVLAETRRGRRMLRQRDIHRSLESGWRTPSSRAKYNDGKLLLVSGGNVKSTSKERPPDLGYLARLAKPLRPTERVNKC ?
Ans. not soluble
